# Tested on: breast cancer
# Measurement Notes: NCI five-dose SRB assay, subpanel average
# Assay Setup: average over breast cancer subpanel, five concentrations, 48 h
Recorded Metric: TGI (total growth inhibitory) (µM)
Express the result in µM but write the number alone.

Query :: # lookup: TGI (total growth inhibitory) of `O=C(O)c1cn(C2CC2)c2cc(N3CCN(S(=O)(=O)c4ccc(Cl)c(Cl)c4)CC3)c(F)cc2c1=O`
Result :: 81.37

Query :: And the next one, `CCn1cc(C(=O)O)c(=O)c2cc(F)c(N3CCN(S(=O)(=O)c4ccc(Cl)cc4Cl)CC3)cc21` ?
Result :: 8.44

Query :: And the next one, `CCn1cc(C(=O)O)c(=O)c2cc(F)c(N3CCN(S(=O)(=O)c4cccc5ccccc45)CC3)cc21` ?
Result :: 38.49

Query :: And the next one, `CCn1cc(C(=O)O)c(=O)c2cc(F)c(N3CCN(S(=O)(=O)c4ccc(Cl)cc4)CC3)cc21` ?
Result :: 54.63

Query :: And the next one, `Cc1cc(C)c(S(=O)(=O)N2CCN(c3cc4c(cc3F)c(=O)c(C(=O)O)cn4C3CC3)CC2)c(C)c1` ?
Result :: 76.89

---

# Test system: SF-268
Recorded Metric: GI50 (µM)
Express the result in µM but write the number alone.

Query :: # lookup: GI50 of O=C(O)c1cn(C2CC2)c2cc(N3CCN(S(=O)(=O)c4ccc(Cl)c(Cl)c4)CC3)c(F)cc2c1=O [Compound 3b]
Result :: 4.77

Query :: And the next one, Cc1cc(C)c(S(=O)(=O)N2CCN(c3cc4c(cc3F)c(=O)c(C(=O)O)cn4C3CC3)CC2)c(C)c1 [Compound 6b] ?
Result :: 3.96

Query :: And the next one, CCn1cc(C(=O)O)c(=O)c2cc(F)c(N3CCN(S(=O)(=O)c4ccc(Cl)cc4Cl)CC3)cc21 [Compound 2a] ?
Result :: 3.86

Query :: And the next one, CCn1cc(C(=O)O)c(=O)c2cc(F)c(N3CCN(S(=O)(=O)c4cccc5ccccc45)CC3)cc21 [Compound 7a] ?
Result :: 4.39

Query :: And the next one, CCn1cc(C(=O)O)c(=O)c2cc(F)c(N3CCN(S(=O)(=O)c4ccc(Cl)cc4)CC3)cc21 [Compound 1a] ?
Result :: 3.85

---

# Test system: MDA-MB-468
Record form. Attribute: GI50. Fill in for each entry.

Query :: # lookup: GI50 of CCn1cc(C(=O)O)c(=O)c2cc(F)c(N3CCN(S(=O)(=O)c4ccc(Cl)cc4Cl)CC3)cc21 [Compound 2a]
Result :: 1980 nM

Query :: And the next one, CCn1cc(C(=O)O)c(=O)c2cc(F)c(N3CCN(S(=O)(=O)c4ccc(Cl)cc4)CC3)cc21 [Compound 1a] ?
Result :: 2100 nM

Query :: And the next one, O=C(O)c1cn(C2CC2)c2cc(N3CCN(S(=O)(=O)c4ccc(Cl)c(Cl)c4)CC3)c(F)cc2c1=O [Compound 3b] ?
Result :: 2250 nM

Query :: And the next one, Cc1cc(C)c(S(=O)(=O)N2CCN(c3cc4c(cc3F)c(=O)c(C(=O)O)cn4C3CC3)CC2)c(C)c1 [Compound 6b] ?
Result :: 1970 nM

Query :: And the next one, CCn1cc(C(=O)O)c(=O)c2cc(F)c(N3CCN(S(=O)(=O)c4cccc5ccccc45)CC3)cc21 [Compound 7a] ?
Result :: 2520 nM

---

Record form. Attribute: GI50. Fill in for each entry.
# Tested on: HT29
Express the result in µM but write the number alone.

Query :: # lookup: GI50 of `CCn1cc(C(=O)O)c(=O)c2cc(F)c(N3CCN(S(=O)(=O)c4cccc5ccccc45)CC3)cc21`
Result :: 3.95

Query :: And the next one, `CCn1cc(C(=O)O)c(=O)c2cc(F)c(N3CCN(S(=O)(=O)c4ccc(Cl)cc4)CC3)cc21` ?
Result :: 2.64

Query :: And the next one, `Cc1cc(C)c(S(=O)(=O)N2CCN(c3cc4c(cc3F)c(=O)c(C(=O)O)cn4C3CC3)CC2)c(C)c1` ?
Result :: 3.15

Query :: And the next one, `O=C(O)c1cn(C2CC2)c2cc(N3CCN(S(=O)(=O)c4ccc(Cl)c(Cl)c4)CC3)c(F)cc2c1=O` ?
Result :: 3.77

Query :: And the next one, `CCn1cc(C(=O)O)c(=O)c2cc(F)c(N3CCN(S(=O)(=O)c4ccc(Cl)cc4Cl)CC3)cc21` ?
Result :: 3.63

---

# Tested on: HOP-62
# Measurement Notes: NCI one-dose SRB growth assay
# Format: cell-based
# Assay Setup: Homo sapiens; HOP-62 (Non-Small Cell Lung Cancer), 10^-5 M, 48 h; read-out: % Growth Inhibition (GI %)
Classification field: Satisfied = inhibition at 10 µM at or over 50%; Not satisfied = inhibition at 10 µM under 50%.

Query :: Is inhibition at 10 µM at least 50%? Consider O=c1[nH]cc(F)c(=O)[nH]1 [Compound 5-FU, 5-fluorouracil, reference compound]
Result :: Not satisfied

Query :: And the next one, `Cc1cc(C)c(S(=O)(=O)N2CCN(c3cc4c(cc3F)c(=O)c(C(=O)O)cn4C3CC3)CC2)c(C)c1` ?
Result :: Not satisfied

Query :: And the next one, `O=C(O)c1cn(C2CC2)c2cc(N3CCN(S(=O)(=O)c4ccc(Cl)cc4Cl)CC3)c(F)cc2c1=O` ?
Result :: Not satisfied

Query :: And the next one, `CCn1cc(C(=O)O)c(=O)c2cc(F)c(N3CCN(S(=O)(=O)c4cccc5ccccc45)CC3)cc21` ?
Result :: Satisfied

Query :: And the next one, `CCn1cc(C(=O)O)c(=O)c2cc(F)c(N3CCN(S(=O)(=O)c4c(C)cc(C)cc4C)CC3)cc21` ?
Result :: Not satisfied

Query :: And the next one, `O=C(O)c1cn(C2CC2)c2cc(N3CCN(S(=O)(=O)c4ccc(Cl)c(Cl)c4)CC3)c(F)cc2c1=O` ?
Result :: Satisfied

Query :: And the next one, `CCn1cc(C(=O)O)c(=O)c2cc(F)c(N3CCN(S(=O)(=O)c4ccc(Cl)cc4Cl)CC3)cc21` ?
Result :: Satisfied

---

# Tested on: MOLT-4
# Measurement Notes: NCI one-dose SRB growth assay
# Assay type: cell-based
# Assay Setup: Homo sapiens; MOLT-4 (Leukemia), 10^-5 M, 48 h; read-out: % Growth Inhibition (GI %)
Recorded Metric: inhibition at 10 µM

Query :: # lookup: inhibition at 10 µM of O=c1[nH]cc(F)c(=O)[nH]1 [Compound 5-FU, 5-fluorouracil, reference compound]
Result :: 43.1%

Query :: And the next one, `CCn1cc(C(=O)O)c(=O)c2cc(F)c(N3CCN(S(=O)(=O)c4cccc5ccccc45)CC3)cc21` ?
Result :: 91.6%

Query :: And the next one, `CCn1cc(C(=O)O)c(=O)c2cc(F)c(N3CCN(S(=O)(=O)c4ccc(Cl)cc4Cl)CC3)cc21` ?
Result :: 98.2%

Query :: And the next one, `Cc1cc(C)c(S(=O)(=O)N2CCN(c3cc4c(cc3F)c(=O)c(C(=O)O)cn4C3CC3)CC2)c(C)c1` ?
Result :: 39%

---

Record form. Attribute: inhibition at 10 µM. Fill in for each entry.
# System: IGROV1
# Measurement Notes: NCI one-dose SRB growth assay
# Type: cell-based
# Assay Setup: Homo sapiens, IGROV-1; IGROV1 (Ovarian Cancer), 10^-5 M, 48 h; read-out: % Growth Inhibition (GI %)
Express the result in % but write the number alone.

Query :: What value of inhibition at 10 µM on IGROV1 does CCn1cc(C(=O)O)c(=O)c2cc(F)c(N3CCN(S(=O)(=O)c4c(C)cc(C)cc4C)CC3)cc21 [Compound 6a] have?
Result :: 20.6

Query :: And the next one, CCn1cc(C(=O)O)c(=O)c2cc(F)c(N3CCN(S(=O)(=O)c4ccc(Cl)cc4Cl)CC3)cc21 [Compound 2a] ?
Result :: 92.5

Query :: And the next one, CCn1cc(C(=O)O)c(=O)c2cc(F)c(N3CCN(S(=O)(=O)c4ccc(Cl)cc4)CC3)cc21 [Compound 1a] ?
Result :: 90.6

Query :: And the next one, O=c1[nH]cc(F)c(=O)[nH]1 [Compound 5-FU, 5-fluorouracil, reference compound] ?
Result :: 51.2

---

# Tested on: breast cancer
# Measurement Notes: NCI five-dose SRB assay, subpanel average
# Assay Setup: Homo sapiens, 48 h, read-out: LC50 (median lethal)
Recorded Metric: CC50

Query :: # lookup: CC50 of O=c1[nH]cc(F)c(=O)[nH]1 [Compound 5-FU, 5-fluorouracil, reference compound]
Result :: > 100 µM

Query :: And the next one, `CCn1cc(C(=O)O)c(=O)c2cc(F)c(N3CCN(S(=O)(=O)c4cccc5ccccc45)CC3)cc21` ?
Result :: > 100 µM

Query :: And the next one, `Cc1cc(C)c(S(=O)(=O)N2CCN(c3cc4c(cc3F)c(=O)c(C(=O)O)cn4C3CC3)CC2)c(C)c1` ?
Result :: > 100 µM

Query :: And the next one, `CCn1cc(C(=O)O)c(=O)c2cc(F)c(N3CCN(S(=O)(=O)c4ccc(Cl)cc4)CC3)cc21` ?
Result :: > 100 µM

Query :: And the next one, `CCn1cc(C(=O)O)c(=O)c2cc(F)c(N3CCN(S(=O)(=O)c4ccc(Cl)cc4Cl)CC3)cc21` ?
Result :: 88.1 µM

Query :: And the next one, `O=C(O)c1cn(C2CC2)c2cc(N3CCN(S(=O)(=O)c4ccc(Cl)c(Cl)c4)CC3)c(F)cc2c1=O` ?
Result :: > 100 µM
